# Tested on: HCT-116 colon
# MEASUREMENT_PROTOCOL: NCI-60 one-dose screen, 48 h (100 = growth as untreated, 0 = no growth, -100 = all killed)
# EXPERIMENTAL_CONDITIONS: 10 µM unless noted
About 83,000 compounds went through this panel and 20% of them were active in at least one assay; those are over-represented in the sample as a whole. Activity calls are given as the source filed them. How the source made its calls: active means growth percent below 10; inactive means the rest.
Kindly supply the reported growth values for the records listed here.

Ask: Data request, read-out growth, for `COc1ccc(C(=O)/C=C/c2cc(-c3cc(OC)c(OC)c(OC)c3)n[nH]2)cc1OC`
Reply: -88.7% (active)

Ask: Param item: `O=C1C(Cl)=C(Nc2ccc(S(=O)(=O)c3ccc(NC4=C(Cl)C(=O)c5ccccc5C4=O)cc3)cc2)C(=O)c2ccccc21`
Reply: -85.7% (active)

Ask: Input `COc1cccc(-c2nn(-c3ccccc3)cc2-c2ccnc(NCCCNS(=O)(=O)c3ccc(Br)cc3)c2)c1`
Reply: 40.8% (inactive)

Ask: And for `CC[C@H](CC[C@@H](C)[C@H]1CC[C@H]2[C@@H]3/C(=C/c4cccnc4)C(=O)C4=CC(=O)CC[C@]4(C)[C@H]3CC[C@]12C)C(C)C` ?
Reply: 61.9% (inactive)

Ask: Field entry: `COC(c1ccccc1)(c1ccccc1)c1ccccc1`
Reply: 104% (inactive)

Ask: Quick one: `Cn1cc(-c2csc(-c3cn(CCNC(=O)OC(C)(C)C)c4ccccc34)n2)c2cccnc21`
Reply: 81.1% (inactive)

Ask: Consider next the compound `C=C(C)[C@@H]1CC[C@]2(C(=O)N3CCN(CC)CC3)CC[C@]3(C)[C@H](CC[C@@H]4[C@@](C)(CCC(=O)N5CCN(CC)CC5)[C@H](C(=C)C)CC[C@]43C)[C@@H]12` in the same way.
Reply: 24.9% (inactive)

Ask: How about Cc1c(C)c2c(c(C)c1NC(=O)CCCCCCC(=O)O)CCC(C)(CCCC(C)CCCC(C)CCCC(C)C)O2 (stereo unspecified) ?
Reply: 22.7% (inactive)

Ask: Could you do the same for `CC(=O)c1c(C)[nH]c(-c2nc3ccc(N4CCN(C)CC4)cc3[nH]2)c1-c1ccc2c(c1)OCCO2` , please?
Reply: 32.1% (inactive)

Ask: Query `COc1cc(-c2cc3ncccc3c3nc(OCCN(C)C)c4cccnc4c23)cc(OC)c1OC` next
Reply: -21.8% (active)

Ask: Next compound: `O=C1OC(c2ccc(Cl)c(Cl)c2)=C/C1=C/c1cccc([N+](=O)[O-])c1`
Reply: 86.5% (inactive)

Ask: For COc1ccc(C2C(C#N)=C(N)Oc3c2sc2c(F)cccc32)cc1 (stereo unspecified) then?
Reply: 8.94% (active)

Ask: What about this compound? `O=C1c2cccc3cccc(c23)C(=O)N1CC#Cc1ccc2c3c(cccc13)C(=O)N(CCN1CCNCC1)C2=O`
Reply: -64.1% (active)

Ask: Another: `N#C/C(=C\c1ccc(-c2ccc(Br)cc2)o1)c1nc(-c2ccco2)cs1`
Reply: 95.6% (inactive)

Ask: Check `O=S(=O)(NCCNc1cc(-c2cn(-c3ccccc3)nc2-c2cccc(O)c2)ccn1)c1ccc(Cl)cc1` too.
Reply: 20.4% (inactive)

Ask: For `CC(C)=CCC[C@](C)(O)[C@H]1CC[C@]2(C)[C@@H]1CC[C@@H]1[C@@]3(C)C/C(=C/c4cccc([N+](=O)[O-])c4)C(=O)C(C)(C)[C@@H]3CC[C@]12C` then?
Reply: 51.5% (inactive)

* * *

Assign growth to each entry below.
# Test system: UO-31 renal
# MEASUREMENT_PROTOCOL: NCI-60 one-dose screen, 48 h (100 = growth as untreated, 0 = no growth, -100 = all killed)
# EXPERIMENTAL_CONDITIONS: 10 µM unless noted
Compounds without any hit were thinned out: in the full panel of roughly 83,000, 20% have a hit. Calls of active or inactive are those of the source. The calls were made as follows: active = growth percent below 10; inactive = the rest.

Ask: Under UO-31 renal: growth value of `O=c1c2sc3ncc(Br)cc3c2ncn1-c1cccc(Cl)c1` ?
Reply: 52.1% (inactive)

Ask: Let us now turn to `Cn1cc(-c2csc(-c3cn(CCN)c4ccc(F)cc34)n2)c2cccnc21`
Reply: 58.3% (inactive)

Ask: Try the compound `O=C1CCCC=CC[C@H]2C=C(Cl)C(=O)C2=CC[C@H](CCCCC(F)(F)F)OC(=O)CCCC=CC[C@H]2C=C(Cl)C(=O)C2=CC[C@H](CCCCC(F)(F)F)OC(=O)CCCC=CC[C@H]2C=C(Cl)C(=O)C2=CC[C@H](CCCCC(F)(F)F)O1`
Reply: 78.9% [6.25 µM] (inactive)

Ask: What do you get for `CC1(C)CC[C@]2(CO)CC[C@]3(C)C(=CC[C@@H]4[C@@]5(C)CC[C@H](NCO)C(C)(C)[C@@H]5CC[C@]43C)[C@@H]2C1` ?
Reply: -58.9% (active)

Ask: # repeat for `c1csc(-c2nc(-c3cc4ccccc4c(N4CCOCC4)n3)cs2)c1`
Reply: 71.3% (inactive)

Ask: Entry to check: COC(=O)[C@]12CC[C@@H](C)[C@H](C)[C@@H]1C1=CC[C@@H]3[C@@]4(C)C[C@@H](O)OC[C@](C)(C=O)C4C(=O)C[C@@]3(C)[C@]1(C)CC2 (stereo partly specified)
Reply: 7.68% (active)

Ask: Queued: `C/C(Cc1ccc(Cl)cc1)=C(/c1ccc(Cl)cc1)c1ccc(OCCN2CCCC2)cc1`
Reply: 68.1% (inactive)

Ask: Next record, please: `C=C(C)[C@@H]1CC[C@]2(c3nnc(-c4ccncc4)o3)CC[C@]3(C)[C@H](CC[C@@H]4[C@@]5(C)CCC(=O)NC(C)(C)[C@@H]5CC[C@]43C)[C@@H]12`
Reply: 76.6% (inactive)

Ask: Likewise for `Cc1nnc2nc(N)[nH]n2c1=O` ?
Reply: 84.7% (inactive)

Ask: Cool, now `COC(=O)[C@]12CC[C@@H](C)[C@H](C)[C@@H]1C1=CC[C@@H]3[C@@]4(C)C(c5ncon5)=C[C@@](C)(CO)C4=CC[C@@]3(C)[C@]1(C)CC2`
Reply: -93.5% (active)

Ask: Repeat with `N=c1c(S(=O)(=O)c2ccccc2)cc2c(=O)n3ccccc3nc2n1C1CCCC1`
Reply: 50.9% (inactive)

Ask: Same read-out for `COc1cc2c(cc1-c1c(C)noc1C)ncc1nc(C3CCC(F)(F)CC3)n([C@@H](C)COC(F)F)c12` ?
Reply: 3.65% (active)

Ask: Next record, please: CC1(c2ccccc2)OC1C(=O)O (stereo unspecified)
Reply: 84.5% (inactive)

Ask: Record: `Cc1csc(Nc2nc(-c3ccc(Cl)cc3)nc(C(Cl)(Cl)Cl)n2)n1`
Reply: 84.8% (inactive)

Ask: How about this compound: `CCNCCCn1c2c(c3ccc([N+](=O)[O-])cc3c1=O)C(=O)c1cc(OC)cnc1-2`
Reply: -85.1% (active)

Ask: Same lookup for `CC(=O)c1c(C)[nH]c(-c2nc3ccc(N4CCN(C)CC4)cc3[nH]2)c1-c1ccc(N(C)C)cc1` , please.
Reply: 7.2% (active)

* * *

# System: MDA-MB-435 melanoma
# MEASUREMENT_PROTOCOL: NCI-60 one-dose screen, 48 h
# EXPERIMENTAL_CONDITIONS: 10 µM unless noted
The panel holds about 83,000 compounds, 20% with a hit somewhere; the sample as a whole holds those more often. The source made the active and inactive calls. Rule for the calls: active = growth percent below 10; inactive = the rest.
Answer with one of the outcomes given here: active, inactive

Ask: // param item: `NCCNc1nc(-c2ccccc2)nc2nc(-c3ccccc3)oc12` ; yields the recorded call
Reply: inactive

Ask: Same read-out for `O=C(/C=C/c1cccc(O)c1)c1ccccc1O` ?
Reply: inactive

Ask: Subsequent entry: `CC(C)=CCC[C@](C)(O)[C@H]1CC[C@]2(C)[C@@H]1CC[C@@H]1[C@@]3(C)C/C(=C/c4ccc(Br)cc4)C(=O)C(C)(C)[C@@H]3CC[C@]12C`
Reply: inactive

Ask: Another compound to look at: `O=c1c2sc3ncc(Br)cc3c2ncn1-c1cccc(Cl)c1`
Reply: inactive

Ask: Try `Cc1ccc(-c2ccc(/C=C(\C#N)c3nc(-c4ccco4)cs3)o2)cc1` next.
Reply: inactive

Ask: Please answer likewise for `CC(C)C[C@@H](NC(=O)[C@@H](Cc1ccccc1)NC(=O)c1cnccn1)B1O[C@H]2[C@H](O)[C@@H](C(=O)NCCCC[C@@H]3NC(=O)[C@@H](Cc4ccccc4)NC(=O)[C@H](CC(=O)O)NC(=O)CNC(=O)[C@H](CCCN=C(N)N)NC3=O)O[C@@H](CN)[C@H]2O1`
Reply: active

Ask: Try this compound too: `Cc1cc(Cl)nc(N(CCCNc2ccnc3cc(Cl)ccc23)Cc2ccco2)n1`
Reply: inactive

Ask: Another compound to look at: COc1ccc(/C=C/C(=O)NCC(C)O)cc1 (stereo not drawn)
Reply: inactive
